Test system: renal tubules
procedure-text: 28-day repeat dose study of known nephrotoxicants, kidney histopathology on day 5 and day 28
Type: in vivo, rat
stated-conditions: after 4 weeks of dosing, kidney histopathology
Method: 28-day repeat dose studies were conducted on known nephrotoxicants. […] All animals were monitored daily for clinical observations approximately 1 hr after dosing. […] Body weights were recorded pre-test and daily thereafter for reference database (i.e., DrugMatrix™) studies, and on days 0, 3, 5, 7, 14 and 28 for the sub-chronic studies. Terminal body weights were measured at necropsy and used to calculate relative organ weights and percent body weight gain relative to day 0. […]

- compound: "N.N.O=C([O-])C1(C(=O)[O-])CCC1.[Pt+2] [CARBOPLATIN]"
  incidence of karyomegaly: "high incidence"
- compound: "CC(=O)[O-].CC(=O)[O-].[Pb+2] [LEAD (II) ACETATE]"
  incidence of karyomegaly: "high incidence"
- compound: "N.N.[Cl][Pt][Cl] [CISPLATIN]"
  incidence of karyomegaly: "high incidence"
- compound: "[Cl-].[Cl-].[Co+2] [COBALT (II) CHLORIDE]"
  incidence of karyomegaly: "high incidence"

All figures here come from patent US7588892B2.
